Where these numbers come from: ChEMBL document CHEMBL3243958

Target: Serotonin 1 (5-HT1) receptor (Rattus norvegicus, UniProt P28564+P30940+P19327+P28565)
Assay: Antagonist activity at 5-HT1 receptor in Sprague-Dawley rat assessed as inhibition of 5-HT-induced stomach fundus contraction
Catalogue of compounds with associated pA2
Answer with a bare number; do not write a unit.

CC(=O)Oc1ccc2[nH]cc(CCN(C)C)c2c1.O=C(O)C(=O)O
7.71

Consider the compound shown here: CN(C)CCc1c[nH]c2ccc(O)cc12 What is its recorded pA2? 7.41

Name the recorded pA2 for CCCC(=O)Oc1ccc2[nH]cc(CCN(C)C)c2c1.O=C(O)C(=O)O . 7.32

Report pA2 for CN(C)CCc1c[nH]c2ccccc12 please. 6

====

Assay: Chemical stability of the compound assessed as ester hydrolysis in Tyrode's solution at 37 degC for 10 to 15 mins
Assay type: physicochemical
Conditions: read-out: Drug metabolism
Recorded endpoint: degraded

CN(C)CCc1c[nH]c2ccc(OC(=O)C(C)(C)C)cc12
1%
CCC(=O)Oc1ccc2[nH]cc(CCN(C)C)c2c1.O=C(O)C(=O)O
5%
CCCC(=O)Oc1ccc2[nH]cc(CCN(C)C)c2c1.O=C(O)C(=O)O
5%
CC(=O)Oc1ccc2[nH]cc(CCN(C)C)c2c1.O=C(O)C(=O)O
5%

Now consider a different compound.
degraded lookup needed for CC(C)C(=O)Oc1ccc2[nH]cc(CCN(C)C)c2c1 , thanks. 1%

====

Test: Chloroform to aqueous buffer partition coefficient, log P of the compound at pH 7.4 by shake flask method
Format: physicochemical
Lab note: compare logP with 3, writing TRUE if less and FALSE if equal or more.

Reference set (4 entries):
CN(C)CCc1c[nH]c2ccccc12
TRUE
CC(=O)Oc1ccc2[nH]cc(CCN(C)C)c2c1.O=C(O)C(=O)O
TRUE
COc1ccc2[nH]cc(CCN(C)C)c2c1 [MEBUFOTENIN]
FALSE
CN(C)CCc1c[nH]c2ccc(O)cc12 [BUFOTENINE]
TRUE

Does CCC(=O)Oc1ccc2[nH]cc(CCN(C)C)c2c1.O=C(O)C(=O)O have logP strictly under 3? FALSE
